Source of measurements: paper PMC9005681

Test system: cloned human or rodent CNS receptors, channels, and transporters (PDSP panel)
Experiment description: PDSP GPCR panel primary binding assays at 10 μM
Measurement setup: Alpha1A; primary assay, replicate 1
Reported Inhibition 1 is given for each of the following compounds.
Numbers only here, please. The scale is %.

Guide cases for Inhibition 1, answers given:
> print(dat)
                                   compound  readout.kind  experimental.value
1  CNc1nc(C)nc(N[C@H]2CCC[C@@H](C(=O)NCc3ccc(C#N)cc3C(F)(F)F)C2)n1 [UNC10302679A, GSK2256294A]  Inhibition 1               -1.03
2  CCC(=O)N1CCC(NC(=O)Nc2ccc(OC(F)(F)F)cc2)CC1 [UNC10302681A, TPPU]  Inhibition 1                4.58

Query: Param request: Inhibition 1 | system cloned human or rodent CNS receptors, channels, and transporters (PDSP panel) | item CC(=O)N1CCC(NC(=O)NC23CC4CC(CC(C4)C2)C3)CC1 [UNC10302683A, AR9281]
Response: 5.7

Query: Param request: Inhibition 1 | system cloned human or rodent CNS receptors, channels, and transporters (PDSP panel) | item O=C(NC1CC1)C(=O)C(Cc1ccccc1)NC(=O)[C@H]1CCC(=O)N1Cc1ccccc1 (stereo partly shown) [UNC10302676A, ABT-957 (Alicapistat)]
Response: -14.03

====

Reported Inhibition 4 is given for each of the following compounds.
Tested system: cloned human or rodent CNS receptors, channels, and transporters (PDSP panel) (Homo sapiens, UniProt P21728)
Construct: expressed in transfected cells
Sequence (P21728 whole entry): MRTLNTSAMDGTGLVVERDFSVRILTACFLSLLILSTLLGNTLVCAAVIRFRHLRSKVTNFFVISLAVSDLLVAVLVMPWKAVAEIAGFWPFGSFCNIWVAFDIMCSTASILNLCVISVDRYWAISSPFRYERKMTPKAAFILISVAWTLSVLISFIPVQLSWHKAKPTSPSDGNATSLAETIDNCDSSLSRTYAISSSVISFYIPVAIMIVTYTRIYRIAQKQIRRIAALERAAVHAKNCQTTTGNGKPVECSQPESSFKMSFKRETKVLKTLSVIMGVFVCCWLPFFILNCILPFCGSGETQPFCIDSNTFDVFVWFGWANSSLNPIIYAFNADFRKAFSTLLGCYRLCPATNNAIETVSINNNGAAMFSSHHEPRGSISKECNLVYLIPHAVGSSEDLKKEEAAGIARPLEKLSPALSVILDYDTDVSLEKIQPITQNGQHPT
Experiment description: PDSP GPCR panel primary binding assays at 10 μM
Measurement setup: Receptor D1; primary assay, 10 μM
Numbers only here, please. The scale is %.

Guide cases for Inhibition 4, answers given:
> print(dat)
                                   compound  unit.symbol  experimental.value
1  Cl.NC(=O)c1cnc(N[C@@H]2CCCC[C@@H]2N)nc1Nc1cccc(-n2nccn2)c1 [UNC10302682A, P505-15 (PRT06207 HCl)]            %                8.82
2  O=c1oc2ccccc2cc1-c1cn2cc(Cc3ccc(F)cc3)sc2n1 [UNC10302680A, iMDK]            %                -9.8
3  c1cn2cc(-c3ccc4cn[nH]c4c3)nc(Nc3ccc(N4CCOCC4)cc3)c2n1 [UNC10302678A, Entospletinib (GS-9973)]            %                7.37

Query: Return Inhibition 4 for the following compound: CCCCNc1ncc2c(-c3ccc(CN4CCN(C)CC4)cc3)cn([C@H]3CC[C@H](O)CC3)c2n1 [UNC2025C, UNC2025]
Response: 11.41

====

Tested on: cloned human or rodent CNS receptors, channels, and transporters (PDSP panel)
Experiment description: PDSP GPCR panel primary binding assays at 10 μM
Measurement setup: DOR; primary assay, replicate 4
Protocol: GPCR panel: Screening against the receptors within the PDSP panel offers an assessment of off-target pharmacological activity at cloned human or rodent CNS receptors, channels, and transporters that could confound CNS-related phenotypes. A total of 46–47 primary binding assays were run in quadruplicate on these compounds at 10 μM, with follow-up secondary binding assays in 11-point dose-response in triplicate for select compounds versus select receptors. […]
Readout kind: Inhibition 4 (%)
Numbers only here, please. The scale is %.

Guide cases for Inhibition 4, answers given:
> print(dat)
                                   compound  unit.symbol  experimental.value
1  CCC(=O)N1CCC(NC(=O)Nc2ccc(OC(F)(F)F)cc2)CC1 [UNC10302681A, TPPU]            %               -3.41
2  CNc1nc(C)nc(N[C@H]2CCC[C@@H](C(=O)NCc3ccc(C#N)cc3C(F)(F)F)C2)n1 [UNC10302679A, GSK2256294A]            %               -3.77
3  O=C(NC1CC1)C(=O)C(Cc1ccccc1)NC(=O)[C@H]1CCC(=O)N1Cc1ccccc1 (stereo partly shown) [UNC10302676A, ABT-957 (Alicapistat)]            %              -19.86

Please turn your attention to the following entry.
Query: Return Inhibition 4 for the following compound: CC(=O)N1CCC(NC(=O)NC23CC4CC(CC(C4)C2)C3)CC1 [UNC10302683A, AR9281]
Response: -12.63

====

Tested system: cloned human or rodent CNS receptors, channels, and transporters (PDSP panel) (Homo sapiens, UniProt P21728)
Construct: expressed in transfected cells
Experiment description: PDSP GPCR panel primary binding assays at 10 μM
Measurement setup: Receptor D1; primary assay, 10 μM
Reported Inhibition 1 is given for each of the following molecules.
Numbers only here, please. The scale is %.

Guide cases for Inhibition 1, answers given:
> print(dat)
                                   molecule  unit.symbol  experimental.value
1  c1cn2cc(-c3ccc4cn[nH]c4c3)nc(Nc3ccc(N4CCOCC4)cc3)c2n1 [UNC10302678A, Entospletinib (GS-9973)]            %                2.51
2  CCCCNc1ncc2c(-c3ccc(CN4CCN(C)CC4)cc3)cn([C@H]3CC[C@H](O)CC3)c2n1 [UNC2025C, UNC2025]            %               18.86
3  Cl.NC(=O)c1cnc(N[C@@H]2CCCC[C@@H]2N)nc1Nc1cccc(-n2nccn2)c1 [UNC10302682A, P505-15 (PRT06207 HCl)]            %               10.12

Please turn your attention to the following entry.
Query: Return Inhibition 1 for the following molecule: O=c1oc2ccccc2cc1-c1cn2cc(Cc3ccc(F)cc3)sc2n1 [UNC10302680A, iMDK]
Response: 5.91

====

Tested system: cloned human or rodent CNS receptors, channels, and transporters (PDSP panel) (Homo sapiens)
Construct: expressed in transfected cells
Experiment description: PDSP GPCR panel primary binding assays at 10 μM
Measurement setup: Alpha1D; primary assay, mean inhibition
Experimental: GPCR panel: Screening against the receptors within the PDSP panel offers an assessment of off-target pharmacological activity at cloned human or rodent CNS receptors, channels, and transporters that could confound CNS-related phenotypes. A total of 46–47 primary binding assays were run in quadruplicate on these compounds at 10 μM, with follow-up secondary binding assays in 11-point dose-response in triplicate for select compounds versus select receptors. […]
Readout kind: Mean % (%)
Numbers only here, please. The scale is %.

Guide cases for Mean %, answers given:
> print(dat)
                                   compound  experimental.value
1  CNc1nc(C)nc(N[C@H]2CCC[C@@H](C(=O)NCc3ccc(C#N)cc3C(F)(F)F)C2)n1 [UNC10302679A, GSK2256294A]              -12.86
2  CCC(=O)N1CCC(NC(=O)Nc2ccc(OC(F)(F)F)cc2)CC1 [UNC10302681A, TPPU]              -10.94
3  CC(=O)N1CCC(NC(=O)NC23CC4CC(CC(C4)C2)C3)CC1 [UNC10302683A, AR9281]               -8.81

Please turn your attention to the following entry.
Query: Return Mean % for the following compound: O=C(NC1CC1)C(=O)C(Cc1ccccc1)NC(=O)[C@H]1CCC(=O)N1Cc1ccccc1 (stereo partly shown) [UNC10302676A, ABT-957 (Alicapistat)]
Response: -2.1

====

Tested on: cloned human or rodent CNS receptors, channels, and transporters (PDSP panel)
Experiment description: PDSP GPCR panel primary binding assays at 10 μM
Measurement setup: Receptor BZP Rat Brain Site; primary assay, 10 μM
Readout kind: Inhibition 2 (%)
Numbers only here, please. The scale is %.

Guide cases for Inhibition 2, answers given:
> print(dat)
                                   molecule  experimental.value
1  CCCCNc1ncc2c(-c3ccc(CN4CCN(C)CC4)cc3)cn([C@H]3CC[C@H](O)CC3)c2n1 [UNC2025C, UNC2025]                6.71
2  c1cn2cc(-c3ccc4cn[nH]c4c3)nc(Nc3ccc(N4CCOCC4)cc3)c2n1 [UNC10302678A, Entospletinib (GS-9973)]               -6.94
3  Cl.NC(=O)c1cnc(N[C@@H]2CCCC[C@@H]2N)nc1Nc1cccc(-n2nccn2)c1 [UNC10302682A, P505-15 (PRT06207 HCl)]               10.02

Please turn your attention to the following entry.
Query: Param request: Inhibition 2 | system cloned human or rodent CNS receptors, channels, and transporters (PDSP panel) | item O=c1oc2ccccc2cc1-c1cn2cc(Cc3ccc(F)cc3)sc2n1 [UNC10302680A, iMDK]
Response: -8.18
